system: OV2008 human cervical cancer cells; assay: MTT cell viability assay, OV2008; type: cell-based; conditions: MTT test, 72 h; read-out: IC50 (µM) ± S.D. OV2008
readoutKind: IC50 (µM)
One number for each entry, in µM.

compound	testTarget	unitTag	reading
NC1CC=CCC1N.O=P1(O)[O][Pt][O]P(=O)(O)O1 (racemic)	OV2008 human cervical cancer cells	µM	30

Hi there! I need IC50 for each item below, if you can.
1. O=P1(O)OP(=O)(O)[O][Pt]2([NH]C3CCC(CC3)[NH]2)[O]1 (stereo not drawn)
2. N[C@@H]1CCCC[C@H]1N.O=P([O-])(O)OP(=O)([O-])O.[Pt+2] [Compound 3, reference compound]
3. O=P1([O-])OP(=O)([O-])[O][Pt]2([NH]C3CCCC(C3)[NH]2)[O]1.[Na+].[Na+] (stereo not drawn) [Compound 1, Na2[Pt(pyrophosphato)(cis-1,3-DACH)]]
4. [NH2][Pt]([NH2])([Cl])[Cl] [CDDP, cisplatin, reference compound]

Result:
1. 46
2. 29
3. 15
4. 4

Ask: Look at this compound and give its reported IC50. O=C1[O][Pt]2([NH][C@@H]3CCCC[C@H]3[NH]2)[O]C1=O
Result: 54

====

tested on: panel of four human cancer cell lines; experiment: MTT cytotoxicity, average over the four cell lines; format: cell-based; settings: average over HCT116, PC3, OV2008, MDAMB231; MTT test, 72 h; read-out: IC50 (µM) ± S.D. Average
readoutKind: IC50 (µM)
Numbers only, in µM.

compound	IC50 / µM
O=P1(O)OP(=O)(O)[O][Pt]2([NH]C3CCC(CC3)[NH]2)[O]1 (stereo not drawn)	72
N[C@@H]1CCCC[C@H]1N.O=P([O-])(O)OP(=O)([O-])O.[Pt+2] [Compound 3, reference compound]	60
[NH2][Pt]([NH2])([Cl])[Cl] [CDDP, cisplatin, reference compound]	6
NC1CC=CCC1N.O=P1(O)[O][Pt][O]P(=O)(O)O1 (racemic)	47

Hi there! I need IC50 for each item below, if you can.
1. O=C1[O][Pt]2([NH][C@@H]3CCCC[C@H]3[NH]2)[O]C1=O
2. O=P1([O-])OP(=O)([O-])[O][Pt]2([NH]C3CCCC(C3)[NH]2)[O]1.[Na+].[Na+] (stereo not drawn) [Compound 1, Na2[Pt(pyrophosphato)(cis-1,3-DACH)]]

Result:
1. 80
2. 23

====

system: MDA MB 231 human breast cancer cells; assay: MTT cell viability assay, MDA MB 231; assay type: cell-based; settings: MTT test, 72 h; read-out: IC50 (µM) ± S.D. MDAMB231
readoutKind: IC50 (µM)
Answers are plain numbers, in µM.

compound	testTarget	unitTag	IC50
O=P1(O)OP(=O)(O)[O][Pt]2([NH]C3CCC(CC3)[NH]2)[O]1 (stereo not drawn)	MDA MB 231 human breast cancer cells	µM	100

Hi there! I need IC50 for each item below, if you can.
1. N[C@@H]1CCCC[C@H]1N.O=P([O-])(O)OP(=O)([O-])O.[Pt+2] [Compound 3, reference compound]
2. O=C1[O][Pt]2([NH][C@@H]3CCCC[C@H]3[NH]2)[O]C1=O

Result:
1: 91; 2: 93

Hi there! I need IC50 for each item below, if you can.
1. NC1CC=CCC1N.O=P1(O)[O][Pt][O]P(=O)(O)O1 (racemic)
2. [NH2][Pt]([NH2])([Cl])[Cl] [CDDP, cisplatin, reference compound]
3. O=P1([O-])OP(=O)([O-])[O][Pt]2([NH]C3CCCC(C3)[NH]2)[O]1.[Na+].[Na+] (stereo not drawn) [Compound 1, Na2[Pt(pyrophosphato)(cis-1,3-DACH)]]

Result:
39
2
26
